molecular target: human NaV 1.8 (Homo sapiens, UniProt Q9Y5Y9); experiment: E-VIPR assay detecting and measuring NaV inhibition properties; format: cell-based; conditions: HEK cells expressing truncated human NaV 1.8; no human serum; read-out: IC50 in the E-VIPR Assay
Sequence (Q9Y5Y9 126-399 limits assumed): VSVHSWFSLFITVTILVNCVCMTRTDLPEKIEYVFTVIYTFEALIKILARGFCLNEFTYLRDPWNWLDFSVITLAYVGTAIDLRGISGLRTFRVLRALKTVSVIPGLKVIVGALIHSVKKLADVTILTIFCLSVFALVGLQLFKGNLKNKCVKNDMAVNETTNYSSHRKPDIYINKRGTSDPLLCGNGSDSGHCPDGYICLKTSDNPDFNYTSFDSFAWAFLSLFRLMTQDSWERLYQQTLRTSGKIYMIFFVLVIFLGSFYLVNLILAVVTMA
Sequence (Q9Y5Y9 660-890 limits assumed): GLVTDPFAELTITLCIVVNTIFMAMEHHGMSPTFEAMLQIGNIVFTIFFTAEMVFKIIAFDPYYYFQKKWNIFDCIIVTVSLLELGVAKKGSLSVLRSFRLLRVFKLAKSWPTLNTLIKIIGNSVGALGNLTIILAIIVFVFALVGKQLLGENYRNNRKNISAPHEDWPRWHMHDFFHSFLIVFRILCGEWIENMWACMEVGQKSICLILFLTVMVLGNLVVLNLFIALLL
Sequence (Q9Y5Y9 1148-1722 limits assumed): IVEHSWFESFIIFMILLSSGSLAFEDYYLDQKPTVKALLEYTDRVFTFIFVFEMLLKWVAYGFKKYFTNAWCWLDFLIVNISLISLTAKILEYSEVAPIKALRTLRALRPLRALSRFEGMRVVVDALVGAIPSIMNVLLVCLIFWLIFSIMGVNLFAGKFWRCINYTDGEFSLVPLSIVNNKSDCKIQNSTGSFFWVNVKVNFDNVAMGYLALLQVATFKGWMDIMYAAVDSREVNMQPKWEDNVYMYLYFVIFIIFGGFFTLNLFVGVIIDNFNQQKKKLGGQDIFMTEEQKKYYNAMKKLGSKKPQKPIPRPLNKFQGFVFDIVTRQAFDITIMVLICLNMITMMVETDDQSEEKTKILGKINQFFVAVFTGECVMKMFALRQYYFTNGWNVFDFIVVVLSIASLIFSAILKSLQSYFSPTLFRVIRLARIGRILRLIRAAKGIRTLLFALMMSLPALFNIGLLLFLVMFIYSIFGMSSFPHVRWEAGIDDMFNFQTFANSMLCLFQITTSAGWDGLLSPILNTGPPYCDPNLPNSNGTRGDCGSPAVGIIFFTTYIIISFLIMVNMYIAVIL
pIC50: −log10 of the molar value.
assay endpoint: pIC50

compound	assayed system	pIC50
CNS(=O)(=O)c1cc(NC(=O)C2OC(C)(C(F)(F)F)C(C)C2c2ccc(F)c(F)c2OC)ccn1 (single isomer, unassigned) [Compound 455]	human NaV 1.8 (Homo sapiens, UniProt Q9Y5Y9)	6.00 to 7.00
COc1c([C@H]2[C@H](C(=O)Nc3ccnc(N4CCN(C)CCC4=O)c3)O[C@@](C)(C(F)(F)F)[C@H]2C)ccc(F)c1F	human NaV 1.8 (Homo sapiens, UniProt Q9Y5Y9)	7.00 to 8.00
COc1c([C@@H]2[C@@H](C(=O)Nc3ccnc(S(C)(=N)=O)c3)O[C@](C)(C(F)(F)F)[C@@H]2C)ccc(F)c1C (relative stereo)	human NaV 1.8 (Homo sapiens, UniProt Q9Y5Y9)	6.00 to 7.00

Ask | Reported pIC50, compound C[C@H]1[C@@H](c2ccc(F)c(F)c2OC(F)F)[C@H](C(=O)Nc2ccc(CCO)nc2)O[C@@]1(C)C(F)(F)F (single isomer, unassigned) : ____
Reply | 7.00 to 8.00

Ask | Next up: COc1c([C@H]2[C@H](C(=O)NC3CCCN(C(C)=O)C3)O[C@@](C)(C(F)(F)F)[C@H]2C)ccc(F)c1F (some centres unmarked)
Reply | ≤ 6.00

Ask | Next up: COc1nc(C(F)F)ccc1[C@H]1[C@H](C(=O)Nc2ccc(C(N)=O)nc2)O[C@@](C)(C(F)(F)F)[C@H]1C (stereo in doubt)
Reply | 6.00 to 7.00

Ask | Next up: COc1c([C@H]2[C@H](C(=O)Nc3ccc(CCS(C)(=O)=O)nc3)O[C@@](C)(C(F)(F)F)[C@H]2C)ccc(F)c1F
Reply | 7.00 to 8.00

Ask | Next up: COc1c(C2C(C(=O)Nc3ccnc(S(C)(=N)=O)c3)OC(C)(C(F)(F)F)C2C)ccc(F)c1F (single isomer, unassigned) [Compound 54]
Reply | > 8.00

Ask | Next up: Cc1nocc1NC(=O)[C@@H]1O[C@@](C)(C(F)(F)F)[C@@H](C)[C@H]1c1ccc(F)c(F)c1OCCN1C[C@H]2COC[C@H]2C1
Reply | 7.00 to 8.00

Ask | Next up: Cc1nocc1NC(=O)[C@@H]1O[C@@](C)(C(F)(F)F)[C@@H](C)[C@H]1c1ccc(F)c(F)c1OCCO
Reply | > 8.00

Ask | Next up: COc1c([C@H]2[C@H](C(=O)Nc3ccnc(O[C@@H]4COC[C@@H]4O)c3)O[C@@](C)(C(F)(F)F)[C@H]2C)ccc(F)c1F (single isomer, unassigned)
Reply | > 8.00

Ask | Next up: CNC(=O)c1ccc(NC(=O)[C@@H]2O[C@@](C)(C(F)(F)F)[C@@H](C)[C@H]2c2ccc(F)c(C(F)F)c2OC)cn1 (stereo in doubt)
Reply | > 8.00

----------
Each item that follows carries a reported IC50.
biological target: human NaV 1.8 (Homo sapiens, UniProt Q9Y5Y9); experiment: E-VIPR assay detecting and measuring NaV inhibition properties; assay type: cell-based; details: HEK cells expressing truncated human NaV 1.8; no human serum; read-out: IC50 in the E-VIPR Assay

These recorded examples may help you get a feel for the data.
molecule	reading
COc1c([C@H]2[C@H](C(=O)NC3CN(C)C3)O[C@@](C)(C(F)(F)F)[C@H]2C)ccc(F)c1F [Compound 278]	≥ 1000 nM
COc1c([C@H]2[C@H](C(=O)Nc3ccnc(N4CCNCC4=O)c3)O[C@@](C)(C(F)(F)F)[C@H]2C)ccc(F)c1F [Compound 411]	< 10 nM
C[C@H]1[C@@H](c2ccc(F)c(F)c2OCCN=S(C)(C)=O)[C@H](C(=O)Nc2ccnc(CO)c2)O[C@@]1(C)C(F)(F)F [Compound 640]	10 to 100 nM
COc1c([C@H]2[C@H](C(=O)NC3CCCCNC3=O)O[C@@](C)(C(F)(F)F)[C@H]2C)ccc(F)c1F (stereo partly drawn) [Compound 299]	≥ 1000 nM
CCOc1c([C@@H]2[C@@H](C(=O)Nc3ccnc(S(C)(=O)=O)c3)O[C@](C)(C(F)(F)F)[C@@H]2C)ccc(F)c1F (stereo in doubt) [Compound 4]	≥ 1000 nM
CCS(=O)(=O)c1cc(NC(=O)[C@H]2O[C@](C)(C(F)(F)F)[C@H](C)[C@@H]2c2ccc(F)c(F)c2OC(F)F)ccn1 (single isomer, unassigned) [Compound 89]	100 to 1000 nM
COc1c([C@H]2[C@H](C(=O)NCC3CNC(=O)C3)O[C@@](C)(C(F)(F)F)[C@H]2C)ccc(F)c1F (stereo partly drawn) [Compound 281]	100 to 1000 nM
COc1c(C2C(C(=O)Nc3cccnc3)OC(C)(C(F)(F)F)C2C)ccc(F)c1F (single isomer, unassigned) [Compound 29]	≥ 1000 nM
COc1c([C@H]2[C@H](C(=O)Nc3ccnc(N4C[C@H]5C[C@@H](C4=O)N5C)c3)O[C@@](C)(C(F)(F)F)[C@H]2C)ccc(F)c1F (single isomer, unassigned) [Compound 509]	10 to 100 nM
Cc1nn(C(F)F)cc1NC(=O)[C@@H]1O[C@@](C)(C(F)(F)F)[C@@H](C)[C@H]1c1ccc(F)c(F)c1CCO [Compound 677]	10 to 100 nM

Ask | Reported IC50, molecule CCOc1c([C@@H]2[C@@H](C(=O)Nc3ccnc(S(C)(=N)=O)c3)O[C@](C)(C(F)(F)F)[C@@H]2C)ccc(F)c1C (single isomer, unassigned) [Compound 126] : ____
Reply | 100 to 1000 nM

Ask | Next up: COc1c([C@H]2[C@H](C(=O)Nc3ncc(O)cn3)O[C@@](C)(C(F)(F)F)[C@H]2C)ccc(F)c1F [Compound 444]
Reply | 100 to 1000 nM

----------
Biological target: human NaV 1.8 (Homo sapiens)
Experiment: E-VIPR assay detecting and measuring NaV inhibition properties
Assay type: cell-based
Conditions: HEK cells expressing truncated human NaV 1.8; no human serum; read-out: IC50 in the E-VIPR Assay
Source text: Sodium ion channels are voltage-dependent proteins that can be activated by inducing membrane voltage changes by applying electric fields. The electrical stimulation instrument and methods of use, referred to as E-VIPR, are described in International Publication No. WO 2002/008748 A3 and C.-J. Huang et al. Characterization of voltage-gated sodium channel blockers by electrical stimulation and fluorescence detection of membrane potential, 24 Nature Biotech. […]
assay endpoint: IC50

These recorded examples may help you get a feel for the data.
compound	IC50
COc1c([C@H]2[C@H](C(=O)Nc3ccnc(N4CCN(C)[C@@H](C)C4=O)c3)O[C@@](C)(C(F)(F)F)[C@H]2C)ccc(F)c1F [Compound 476]	10 to 100 nM
C[C@H]1[C@@H](c2ccc(F)c(F)c2OCCO)[C@H](C(=O)Nc2ccnn2C)O[C@@]1(C)C(F)(F)F [Compound 547]	100 to 1000 nM
Cc1nn(C(F)F)cc1NC(=O)[C@@H]1O[C@@](C)(C(F)(F)F)[C@@H](C)[C@H]1c1ccc(F)c(F)c1CCN1CC2(COC2)C1 [Compound 679]	≥ 1000 nM
CCOc1c([C@H]2[C@H](C(=O)Nc3ccnc(S(C)(=N)=O)c3)O[C@@](C)(C(F)(F)F)[C@H]2C)ccc(F)c1C (single isomer, unassigned) [Compound 128]	< 10 nM
COc1c([C@@H]2[C@H](C)[C@H](C)O[C@H]2C(=O)Nc2ccnc(C(O)CO)c2)ccc(F)c1F (relative stereo) [Compound 718]	100 to 1000 nM

Ask | Tell me reported IC50 for COC1CN(CCOc2c([C@H]3[C@H](C(=O)Nc4conc4C)O[C@@](C)(C(F)(F)F)[C@H]3C)ccc(F)c2F)C1 [Compound 627] , tested with human NaV 1.8 (Homo sapiens).
Reply | 10 to 100 nM

Ask | Next up: COc1c([C@H]2[C@H](C(=O)Nc3ccnc(NC(=O)CN(C)C)c3)O[C@@](C)(C(F)(F)F)[C@H]2C)ccc(F)c1F [Compound 472]
Reply | 10 to 100 nM

Ask | Next up: COc1c([C@H]2[C@H](C(=O)NCC(=O)N3CCOCC3)O[C@@](C)(C(F)(F)F)[C@H]2C)ccc(F)c1F [Compound 304]
Reply | ≥ 1000 nM

Ask | Next up: COc1c([C@@H]2C[C@](C)(C(F)(F)F)O[C@H]2C(=O)Nc2ccnc(C(C)(O)CO)c2)ccc(F)c1F (single isomer, unassigned) [Compound 701]
Reply | 10 to 100 nM

Ask | Next up: COc1c([C@H]2[C@H](C(=O)Nc3ccc(CC4CCNCC4)nc3)O[C@@](C)(C(F)(F)F)[C@H]2C)ccc(F)c1F [Compound 215]
Reply | 10 to 100 nM

Ask | Next up: Cc1nn(C(F)F)cc1NC(=O)[C@@H]1O[C@@](C)(C(F)(F)F)[C@@H](C)[C@H]1c1ccc(F)c(F)c1C(C)O (relative stereo) [Compound 680]
Reply | 10 to 100 nM

Ask | Next up: COc1c([C@@H]2C[C@](C)(C(F)(F)F)O[C@H]2C(=O)Nc2ccnc([C@H](O)CO)c2)ccc(F)c1C (single isomer, unassigned) [Compound 704]
Reply | 10 to 100 nM
